All figures here come from patent US20250346585A1.

Reported pIC50 is given for each of the following compounds.
- testSystem: Human complement C1s enzyme (Homo sapiens (Human), UniProt P09871)
- Sequence (P09871 438-688 limits assumed): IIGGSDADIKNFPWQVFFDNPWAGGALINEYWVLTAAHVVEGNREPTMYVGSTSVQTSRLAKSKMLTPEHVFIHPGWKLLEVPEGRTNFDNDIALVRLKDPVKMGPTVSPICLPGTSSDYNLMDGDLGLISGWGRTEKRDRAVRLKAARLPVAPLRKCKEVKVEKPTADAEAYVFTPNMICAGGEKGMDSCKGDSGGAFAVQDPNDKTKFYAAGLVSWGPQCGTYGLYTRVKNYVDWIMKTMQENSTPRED
- Sequence (P09871 16-437 partner limits assumed): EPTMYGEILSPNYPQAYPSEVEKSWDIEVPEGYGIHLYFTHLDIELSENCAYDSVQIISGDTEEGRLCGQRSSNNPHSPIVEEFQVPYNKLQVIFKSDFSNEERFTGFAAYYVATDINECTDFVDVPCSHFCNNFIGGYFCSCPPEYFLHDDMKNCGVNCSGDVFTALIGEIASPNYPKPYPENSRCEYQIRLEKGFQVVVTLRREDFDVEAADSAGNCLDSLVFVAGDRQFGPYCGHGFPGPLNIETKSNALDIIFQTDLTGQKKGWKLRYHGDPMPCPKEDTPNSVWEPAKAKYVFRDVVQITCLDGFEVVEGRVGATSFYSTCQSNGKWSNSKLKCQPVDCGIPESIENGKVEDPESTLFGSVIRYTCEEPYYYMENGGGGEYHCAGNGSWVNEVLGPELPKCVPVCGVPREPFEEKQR
- assayName: Human C1s enzyme assay
- Type: biochemical
- particulars: Human C1s enzyme assay of Example 3; read-out: IC50 (Stars)
pIC50: −log10 of the molar value.

These solved cases illustrate the format of a correct answer.
CS(=O)(=O)c1ccc(-c2ccc(C(=O)NCC(=O)N3CC4(C[C@H]3C(=O)NCc3cc(C(=N)N)cs3)OCCO4)cc2)cc1 | > 7.00
Cc1ccc(Oc2ccc(C(=O)NCC(=O)N3[C@H]4C[C@@]4(C)C[C@H]3C(=O)N[C@H](C)c3ccc(C(=N)N)s3)cc2)cc1 | > 7.00
C[C@H]1C[C@@H](C(=O)N[C@H](C)c2cc(C(=N)N)cs2)N(C(=O)CNC(=O)c2ccc3c(c2)-c2ccccc2C3(F)F)C1 | > 7.00

Data request: What does the record list as pIC50 for `C[C@@H]1C[C@@H](C(=O)N[C@H](C)c2cc(C(=N)N)cs2)N(C(=O)CNC(=O)c2ccc3c(c2)-c2ccccc2C3(F)F)C1` ?
Data returned: > 7.00

Data request: Can you handle `C[C@@H](NC(=O)[C@@H]1CC2(CN1C(=O)CNC(=O)c1ccc3c(c1)-c1ccccc1C3(F)F)OCCO2)c1cc(-c2cocn2)cs1` next?
Data returned: < 6.00

Data request: And then `C[C@@H](NC(=O)[C@@H]1CC2(CN1C(=O)CNC(=O)c1ccc(-c3ccc(F)cc3Cl)cc1)OCCO2)c1cc(C(=N)N)cs1` , what is it?
Data returned: > 7.00
